tested on: NCI-H460; assay: Cytotoxic activity against human NCI-H460 cells after 72 hrs by sulforhodamine B test; assay type: functional, cell-based; settings: NCI-H460, 72 h
Test Readout: IC50 (nM)
Kindly provide the numeric value in nM only, without the unit symbol.

>  <Compound Structure>
COc1ccc(/C=C\c2cc(OC)c(OC)c(OC)c2)cc1N

>  <Display Unit>
nM

>  <Measurement>
4.9

$$$$
>  <Compound Structure>
COc1ccc(/C=C\c2cc(OC)c(OC)c(OC)c2)cc1[N+](=O)[O-]

>  <Display Unit>
nM

>  <Measurement>
128

$$$$
>  <Compound Structure>
COc1ccc(/C=C(/F)c2cc(OC)c(OC)c(OC)c2)cc1[N+](=O)[O-]

>  <Display Unit>
nM

>  <Measurement>
42.6

$$$$
>  <Compound Structure>
COc1ccc(/C(F)=C(/F)c2cc(OC)c(OC)c(OC)c2)cc1O

>  <Display Unit>
nM

>  <Measurement>
3

$$$$

The record that follows has no IC50 shown yet.
Query: I'd like to know its IC50. The compound in question is COc1ccc(/C(F)=C(/F)c2cc(OC)c(OC)c(OC)c2)cc1[N+](=O)[O-]
Reply: 1170

###

tested on: HT-29; experiment: Cytotoxic activity against human HT29 cells after 72 hrs by sulforhodamine B test; format: functional, cell-based; conditions: HT-29, 72 h
pIC50: −log10 of the molar value.
pIC50 below 8 gives false (0); pIC50 at or above it gives true (1).

>  <Compound Structure>
COc1ccc(/C(F)=C(/F)c2cc(OC)c(OC)c(OC)c2)cc1N

>  <Class Name>
true (1)

$$$$
>  <Compound Structure>
COc1ccc(/C(F)=C\c2cc(OC)c(OC)c(OC)c2)cc1N

>  <Class Name>
true (1)

$$$$
>  <Compound Structure>
COc1ccc(/C(F)=C(/F)c2cc(OC)c(OC)c(OC)c2)cc1O

>  <Class Name>
false (0)

$$$$

Query: Kindly determine if pIC50 recorded for COc1ccc(/C(F)=C\c2cc(OC)c(OC)c(OC)c2)cc1O is above or exactly 8.
Reply: false (0)

Query: Can you handle COc1ccc(/C(F)=C(/F)c2cc(OC)c(OC)c(OC)c2)cc1[N+](=O)[O-] next?
Reply: false (0)

###

test system: HT-29; assay: Cytotoxic activity against human HT29 cells after 72 hrs by sulforhodamine B test; type: functional, cell-based; settings: HT-29, 72 h
In this section we review reported log10 of IC50 values for a set of compounds.
log10 IC50, µM

>  <Compound Structure>
COc1ccc(/C=C\c2cc(OC)c(OC)c(OC)c2)cc1[N+](=O)[O-]

>  <log10 of IC50>
-0.95

$$$$
>  <Compound Structure>
COc1ccc(/C(F)=C\c2cc(OC)c(OC)c(OC)c2)cc1[N+](=O)[O-]

>  <log10 of IC50>
-0.69

$$$$
>  <Compound Structure>
COc1ccc(/C=C(/F)c2cc(OC)c(OC)c(OC)c2)cc1[N+](=O)[O-]

>  <log10 of IC50>
-1.49

$$$$

Query: What log10 of IC50 value was documented for this compound, COc1ccc(/C=C(/F)c2cc(OC)c(OC)c(OC)c2)cc1O ?
Reply: -1.00

Query: // next record COc1ccc(/C=C(/F)c2cc(OC)c(OC)c(OC)c2)cc1N
Reply: -2.54
